Reference source: patent US20250134890A1

Measured pIC50 accompanies every entry in the list below.
- Test system: Plasmodium falciparum: 3D7 strain
- assayMethodText: P. falciparum 3D7 asexual blood stage assay (SYBR green readout)
- Assay type: cell-based
- experimentalParameters: Plasmodium falciparum, 3D7, Erythrocyte, 72 h, P. falciparum 3D7 in human erythrocytes, 72 h incubation, SYBR green fluorescence
Where a name gives a salt, the structure may show the parent alone.
// pIC50 is dimensionless: -log10 of concentration (M)

>  <compound>
C[C@H]1C[C@H](N2C(=N)N[C@](C)(c3cccc(-c4ccc(OC(F)F)nc4)c3Cl)CC2=O)CCS1(=O)=O (relative stereo) [Example 73, hydrochloride]

>  <pIC50>
6.64

$$$$
>  <compound>
C[C@H]1C[C@@H](N2C(=N)N[C@](C)(c3cccc(-c4ccc(Cl)cn4)c3Cl)CC2=O)CCS1(=O)=O (relative stereo) [Example 75, hydrochloride]

>  <pIC50>
6.66

$$$$
>  <compound>
C[C@H]1C[C@@H](N2C(=N)N[C@](C)(c3cccc(-c4ccncc4Cl)c3Cl)CC2=O)CCO1 [Example 57, trifluoroacetic acid salt]

>  <pIC50>
7.21

$$$$
>  <compound>
C[C@H]1C[C@@H](N2C(=N)N[C@](C)(c3cccc(-c4cn(Cc5ccccc5)nn4)c3Cl)CC2=O)CCO1 [Example 124, trifluoroacetic acid salt]

>  <pIC50>
6.67

$$$$

Problem: Param item = C[C@H]1C[C@@H](N2C(=N)N[C@](C)(c3cccc(-c4ccc(F)cc4F)c3Cl)CC2=O)CCN1C (relative stereo) [Example 106, hydrochloride] ; retrieve measured pIC50.
Solution: 7.03

Problem: Param item = C[C@H]1C[C@@H](N2C(=N)N[C@](C)(c3cccc(-c4cn(CCN(C)C)nn4)c3Cl)CC2=O)CCO1 [Example 114, trifluoroacetic acid salt] ; retrieve measured pIC50.
Solution: 6.03

Problem: Param item = C[C@H]1C[C@@H](N2C(=N)N[C@](C)(c3cccc(-c4cccc(NS(C)(=O)=O)c4)c3Cl)CC2=O)CCC1(F)F [Example 13, trifluoroacetic acid salt] ; retrieve measured pIC50.
Solution: 8.00
